The measurements presented in this section are drawn from paper PMC7284125.

Kindly state Fractional motility for each of the entries shown.
System: S. mansoni adult worms
Experiment: Motility assay on adult parasites (pixel displacement, relative to DMSO control)
Type: cell-based, Schistosoma mansoni
Details: secondary screen, 10 μM, D5, Female adult worms
Protocol: Adult parasites were collected from 40 day-old female CD1 mice (Charles River) previously inoculated by the tail infection method ([Lewis, 2001]). […] Schistosomulae (200/well) and adult parasites (unpaired worms) were maintained in 300 μL OPTI-MEM with 5% dialyzed FBS (without antibiotics) and exposed to compounds at 1 and 10 μM for 24 h. […] Images were recorded at a rate of 10 frames/s for a period of 1 min and videos were analyzed using ImageJ software (version 1.41, NIH, USA). […]
One number for each entry.

Below are worked cases with known answers.
Cc1cccc(C(C)c2cnc[nH]2)c1C (stereo not shown) = -0.85
Cc1nc(C#Cc2ccnc(Cl)c2)c(C)n1-c1ccc(OC(F)(F)F)cc1 = -0.35
C=CC(=O)Nc1cc(Nc2nccc(-c3cn(C)c4ccccc34)n2)c(OC)cc1N(C)CCN(C)C = -0.14
CN(C)CCCN1c2ccccc2Sc2ccc(Cl)cc21 = -0.45
Cc1ccc(C(=O)N(CCCN)[C@@H](c2nc3cc(Cl)ccc3c(=O)n2Cc2ccccc2)C(C)C)cc1 = -0.34
C=CC(=O)N1CCC[C@@H](n2nc(-c3ccc(Oc4ccccc4)cc3)c3c(N)ncnc32)C1 = 0.36

Provide Fractional motility for all items below, preserving their order.
1. CCCCCCCCCCCCCCCCn1cc[n+](Cc2ccccc2)c1C.[I-]
2. CNCCC(Oc1ccc(C(F)(F)F)cc1)c1ccccc1 (stereo not shown)

Key:
1: -0.89; 2: 0.45
